Recorded values, source the kinase profiling compilation of Christmann-Franck et al. (2016).

Can you tell me kinase still bound, per cent of control for the items I'm about to list?
biological target: TNK2 (human) (UniProt Q07912); assay: KINOMEscan competition binding; settings: compound 10.0 µM
Sequence (Q07912 whole entry, looked up): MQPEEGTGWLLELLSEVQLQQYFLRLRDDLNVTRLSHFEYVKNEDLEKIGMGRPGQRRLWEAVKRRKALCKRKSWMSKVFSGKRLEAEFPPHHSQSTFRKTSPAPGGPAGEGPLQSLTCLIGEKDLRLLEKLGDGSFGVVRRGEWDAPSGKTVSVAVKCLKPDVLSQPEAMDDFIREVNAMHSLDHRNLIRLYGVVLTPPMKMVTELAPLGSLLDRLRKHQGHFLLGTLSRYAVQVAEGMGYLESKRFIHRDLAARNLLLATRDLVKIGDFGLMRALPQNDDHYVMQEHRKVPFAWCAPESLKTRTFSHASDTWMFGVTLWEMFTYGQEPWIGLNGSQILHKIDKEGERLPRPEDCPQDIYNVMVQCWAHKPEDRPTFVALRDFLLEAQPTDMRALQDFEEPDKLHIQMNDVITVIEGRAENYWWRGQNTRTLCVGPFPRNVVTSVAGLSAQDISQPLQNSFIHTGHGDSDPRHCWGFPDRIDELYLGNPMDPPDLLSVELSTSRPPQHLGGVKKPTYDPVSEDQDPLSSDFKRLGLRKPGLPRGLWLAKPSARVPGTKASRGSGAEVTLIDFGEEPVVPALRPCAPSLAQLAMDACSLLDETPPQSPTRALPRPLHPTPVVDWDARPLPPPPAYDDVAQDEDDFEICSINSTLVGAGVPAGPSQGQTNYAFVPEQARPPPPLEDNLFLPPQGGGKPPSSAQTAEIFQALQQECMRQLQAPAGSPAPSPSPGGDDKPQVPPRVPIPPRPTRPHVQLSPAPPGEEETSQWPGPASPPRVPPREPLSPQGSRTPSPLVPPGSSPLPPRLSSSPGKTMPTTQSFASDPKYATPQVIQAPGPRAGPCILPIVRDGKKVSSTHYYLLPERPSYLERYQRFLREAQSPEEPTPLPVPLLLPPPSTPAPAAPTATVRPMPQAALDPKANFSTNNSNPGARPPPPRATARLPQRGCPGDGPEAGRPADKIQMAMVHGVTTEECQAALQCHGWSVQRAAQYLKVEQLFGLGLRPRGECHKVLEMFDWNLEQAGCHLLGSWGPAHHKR
Give bare numbers, in %.

Solved entries (count: 5):
smiles_text=CCCS(=O)(=O)Nc1ccc(F)c(C(=O)c2c[nH]c3ncc(-c4ccc(Cl)cc4)cc23)c1F experimental_result=6.9
smiles_text=C=CC(=O)Nc1cccc(Oc2nc(Nc3ccc(N4CCN(C)CC4)cc3OC)ncc2Cl)c1 experimental_result=18
smiles_text=OCCCNc1cc(-c2ccnc(Nc3cccc(Cl)c3)n2)ccn1 experimental_result=100
smiles_text=Cc1cc([C@@H](C)Nc2ccccc2C(=O)O)c2nc(N3CCOCC3)cc(=O)n2c1 experimental_result=100
smiles_text=Cc1ccc(C(=O)Nc2cccc(C(F)(F)F)c2)cc1Nc1cncc(C(N)=O)c1 experimental_result=100

Kindly give each listed record's kinase still bound, per cent of control.
1. O=C1Nc2ccc(I)cc2/C1=C/c1cc(Br)c(O)c(Br)c1
2. COc1cc(C(=O)NC2CCN(C)CC2)ccc1Nc1ncc2c(n1)N(C1CCCC1)CCC(=O)N2C(C)C

Ans:
1. 74
2. 100

---

target: HIPK4 (human); assay: KINOMEscan competition binding; conditions: compound 10.0 µM
measure-name: kinase still bound, per cent of control (%)
Give bare numbers, in %.

Before answering, review these 4 worked examples.
smiles_text=COc1cc(C(=O)NC2CCN(C)CC2)ccc1Nc1ncc2c(n1)N(C1CCCC1)CCC(=O)N2C(C)C experimental_result=100
smiles_text=O=C1Nc2ccc(I)cc2/C1=C/c1cc(Br)c(O)c(Br)c1 experimental_result=21
smiles_text=O=C(NC1CC1)c1cccc(-c2ccc3c(NC(=O)C4CC4)n[nH]c3c2)c1 experimental_result=40
smiles_text=OCCCNc1cc(-c2ccnc(Nc3cccc(Cl)c3)n2)ccn1 experimental_result=14

get_value(item= C=CC(=O)Nc1cccc(Nc2nc(N[C@H]3CC[C@H](N(C)C)CC3)nc3c2ncn3C(C)C)c1 , readout=kinase still bound, per cent of control) returns 63

---

target: UniProt P53355; assay: KINOMEscan competition binding; settings: compound 10.0 µM
Sequence (P53355 whole entry, looked up): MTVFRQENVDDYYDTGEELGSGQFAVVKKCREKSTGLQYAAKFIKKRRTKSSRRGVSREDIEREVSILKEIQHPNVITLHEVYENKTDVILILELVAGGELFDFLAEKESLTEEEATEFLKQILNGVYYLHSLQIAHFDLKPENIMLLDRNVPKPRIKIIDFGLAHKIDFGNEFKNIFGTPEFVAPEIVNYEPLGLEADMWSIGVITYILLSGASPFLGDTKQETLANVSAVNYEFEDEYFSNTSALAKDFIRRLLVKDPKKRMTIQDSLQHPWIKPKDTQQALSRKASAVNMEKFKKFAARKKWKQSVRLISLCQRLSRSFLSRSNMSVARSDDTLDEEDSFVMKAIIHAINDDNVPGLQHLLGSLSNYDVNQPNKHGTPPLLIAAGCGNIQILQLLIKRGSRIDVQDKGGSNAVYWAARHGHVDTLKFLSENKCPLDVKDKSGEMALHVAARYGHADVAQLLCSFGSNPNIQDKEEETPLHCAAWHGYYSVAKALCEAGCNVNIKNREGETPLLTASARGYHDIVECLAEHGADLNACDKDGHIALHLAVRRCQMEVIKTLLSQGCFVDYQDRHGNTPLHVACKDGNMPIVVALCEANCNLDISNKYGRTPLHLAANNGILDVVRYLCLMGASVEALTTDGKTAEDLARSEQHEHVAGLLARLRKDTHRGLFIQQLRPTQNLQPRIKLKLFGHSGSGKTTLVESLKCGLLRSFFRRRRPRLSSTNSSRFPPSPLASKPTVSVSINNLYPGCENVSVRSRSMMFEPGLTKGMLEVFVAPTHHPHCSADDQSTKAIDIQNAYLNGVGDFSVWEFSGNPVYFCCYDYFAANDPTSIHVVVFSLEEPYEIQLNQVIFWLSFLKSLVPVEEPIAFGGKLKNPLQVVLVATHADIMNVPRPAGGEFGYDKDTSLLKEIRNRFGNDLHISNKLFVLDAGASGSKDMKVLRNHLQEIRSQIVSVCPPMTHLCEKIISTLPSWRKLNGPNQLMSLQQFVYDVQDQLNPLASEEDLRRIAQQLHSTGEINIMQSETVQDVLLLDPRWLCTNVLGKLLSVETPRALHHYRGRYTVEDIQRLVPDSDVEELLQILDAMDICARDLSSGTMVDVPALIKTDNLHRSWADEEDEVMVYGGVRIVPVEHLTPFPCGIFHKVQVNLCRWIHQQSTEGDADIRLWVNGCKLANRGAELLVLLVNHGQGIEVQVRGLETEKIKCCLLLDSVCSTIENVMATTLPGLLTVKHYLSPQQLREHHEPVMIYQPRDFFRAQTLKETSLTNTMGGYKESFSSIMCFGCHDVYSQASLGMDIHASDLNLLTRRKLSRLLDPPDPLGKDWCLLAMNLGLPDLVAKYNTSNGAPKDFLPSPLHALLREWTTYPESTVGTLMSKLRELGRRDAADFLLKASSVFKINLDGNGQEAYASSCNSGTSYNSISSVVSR
For each entry below, report its kinase still bound, per cent of control value.
Numbers only, in %.

molecule=Nc1ccc(-c2ccc3ncc4ccc(=O)n(-c5cccc(C(F)(F)F)c5)c4c3c2)cn1 experimental_result=91
molecule=CCCS(=O)(=O)Nc1ccc(F)c(C(=O)c2c[nH]c3ncc(-c4ccc(Cl)cc4)cc23)c1F experimental_result=83
molecule="COc1cc(C(=O)NC2CCN(C)CC2)ccc1Nc1ncc2c(n1)N(C1CCCC1)C(C)CC(=O)N2C (stereo not given)" experimental_result=26
molecule=N#Cc1c(NC(=O)c2cccc3ccccc23)sc2c1CCCC2 experimental_result=85
molecule=O=C(O)c1ccc(Nc2ncc3c(n2)-c2ccc(Cl)cc2C(c2c(F)cccc2F)=NC3)cc1 experimental_result=48

List the reported kinase still bound, per cent of control of each molecule below.
1. CCOc1cc2ncc(C#N)c(Nc3ccc(OCc4ccccn4)c(Cl)c3)c2cc1NC(=O)/C=C/CN(C)C
2. O=C(NOC[C@H](O)CO)c1ccc(F)c(F)c1Nc1ccc(I)cc1F
3. C=CC(=O)Nc1cccc(Nc2nc(N[C@H]3CC[C@H](N(C)C)CC3)nc3c2ncn3C(C)C)c1
4. C=CC(=O)Nc1cc(NC(=O)c2ccc(C)c(NC(=O)c3ccno3)c2)cc(C(F)(F)F)c1
5. COc1cc(N2CCN(C)CC2)ccc1Nc1nc(N)c(C(=O)c2c(Cl)cccc2Cl)s1
6. O=C1Nc2ccc(I)cc2/C1=C/c1cc(Br)c(O)c(Br)c1
7. CCN1CCN(Cc2ccc(Nc3ncc4c(n3)N(C)c3ccccc3C(=O)N4C)cc2C(F)(F)F)CC1

Ans:
98
100
29
80
85
6.2
65

Report kinase still bound, per cent of control for every entry below.
1. Cc1ccc(NC(=O)c2cccc(C(C)(C)C#N)c2)cc1Nc1ccc2ncn(C)c(=O)c2c1
2. OCCCNc1cc(-c2ccnc(Nc3cccc(Cl)c3)n2)ccn1
3. Cn1c(=O)n(-c2ccc(C(C)(C)C#N)cc2)c2c3cc(-c4cnc5ccccc5c4)ccc3ncc21

Ans:
1: 100; 2: 100; 3: 100

---

system: CPK1 (P.falciparum); assay: KINOMEscan competition binding; settings: compound 10.0 µM
I'd be grateful if you could share measured kinase still bound, per cent of control for these entries.

The following compounds have reported results that may help.
smiles_text=O=C1Nc2ccc(I)cc2/C1=C/c1cc(Br)c(O)c(Br)c1 measure_name="kinase still bound, per cent of control" experimental_result=24%
smiles_text=C=CC(=O)Nc1cc(NC(=O)c2ccc(C)c(NC(=O)c3ccno3)c2)cc(C(F)(F)F)c1 measure_name="kinase still bound, per cent of control" experimental_result=94%
smiles_text=Nc1ccc(-c2ccc3ncc4ccc(=O)n(-c5cccc(C(F)(F)F)c5)c4c3c2)cn1 measure_name="kinase still bound, per cent of control" experimental_result=52%
smiles_text=Cc1ccc(NC(=O)c2cccc(C(C)(C)C#N)c2)cc1Nc1ccc2ncn(C)c(=O)c2c1 measure_name="kinase still bound, per cent of control" experimental_result=0.75%
smiles_text=C[C@@H](Oc1cc(-n2cnc3ccc(CN4CCN(C)CC4)cc32)sc1C(N)=O)c1ccccc1C(F)(F)F measure_name="kinase still bound, per cent of control" experimental_result=62%
smiles_text=CN(C)C/C=C/C(=O)Nc1cccc(Nc2ncc3c(n2)N(C)c2ccccc2C(=O)N3C)c1 measure_name="kinase still bound, per cent of control" experimental_result=74%

Please look at the following compound next.
The measured kinase still bound, per cent of control associated with CCC(=O)N1CCN(c2ccc(-n3c(=O)ccc4cnc5ccc(-c6cnc7ccccc7c6)cc5c43)cc2C(F)(F)F)CC1 reads 36%

---

Provide the recorded kinase still bound, per cent of control for the entries that follow.
target: RIPK2 (human) (UniProt O43353); assay: KINOMEscan competition binding; conditions: compound 10.0 µM
Sequence (O43353 whole entry, looked up): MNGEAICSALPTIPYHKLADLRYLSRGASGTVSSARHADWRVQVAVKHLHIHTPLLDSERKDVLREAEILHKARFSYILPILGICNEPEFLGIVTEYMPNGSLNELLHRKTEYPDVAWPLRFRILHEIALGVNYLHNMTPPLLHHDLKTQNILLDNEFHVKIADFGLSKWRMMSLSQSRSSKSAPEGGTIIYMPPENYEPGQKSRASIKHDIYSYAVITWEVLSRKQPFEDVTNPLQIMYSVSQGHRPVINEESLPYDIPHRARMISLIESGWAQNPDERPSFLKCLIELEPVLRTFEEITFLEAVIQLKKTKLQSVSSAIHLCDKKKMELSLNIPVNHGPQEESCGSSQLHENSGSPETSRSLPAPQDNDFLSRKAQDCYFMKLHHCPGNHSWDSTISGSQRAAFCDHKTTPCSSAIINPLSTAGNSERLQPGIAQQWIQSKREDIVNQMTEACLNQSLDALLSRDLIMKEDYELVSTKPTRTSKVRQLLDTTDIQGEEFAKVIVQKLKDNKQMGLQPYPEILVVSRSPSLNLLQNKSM
Give bare numbers, in %.

Example entries begin here.
smiles_text=N#Cc1c(NC(=O)c2cccc3ccccc23)sc2c1CCCC2 measure_name="kinase still bound, per cent of control" unit_symbol=% experimental_result=58
smiles_text=Cc1ccc(C(=O)Nc2cccc(C(F)(F)F)c2)cc1Nc1cncc(C(N)=O)c1 measure_name="kinase still bound, per cent of control" unit_symbol=% experimental_result=100
smiles_text=O=C1Nc2ccc(I)cc2/C1=C/c1cc(Br)c(O)c(Br)c1 measure_name="kinase still bound, per cent of control" unit_symbol=% experimental_result=38
smiles_text=O=C(O)c1ccc(Nc2ncc3c(n2)-c2ccc(Cl)cc2C(c2c(F)cccc2F)=NC3)cc1 measure_name="kinase still bound, per cent of control" unit_symbol=% experimental_result=97
smiles_text=Cn1c(=O)n(-c2ccc(C(C)(C)C#N)cc2)c2c3cc(-c4cnc5ccccc5c4)ccc3ncc21 measure_name="kinase still bound, per cent of control" unit_symbol=% experimental_result=100

Count: 4. Required value per item: kinase still bound, per cent of control.
1. COc1cc(C(=O)NC2CCN(C)CC2)ccc1Nc1ncc2c(n1)N(C1CCCC1)CCC(=O)N2C(C)C
2. C=CC(=O)Nc1cccc(Oc2nc(Nc3ccc(N4CCN(C)CC4)cc3OC)ncc2Cl)c1
3. CCN1CCN(Cc2ccc(Nc3ncc4c(n3)N(C)c3ccccc3C(=O)N4C)cc2C(F)(F)F)CC1
4. Nc1ccc(-c2ccc3ncc4ccc(=O)n(-c5cccc(C(F)(F)F)c5)c4c3c2)cn1

Ans:
1: 100; 2: 100; 3: 6.4; 4: 54

---

So I've got a bunch of compounds here, and I need their kinase still bound, per cent of control values.
biological target: EPHB4 (human); assay: KINOMEscan competition binding; settings: compound 10.0 µM
Give bare numbers, in %.

compound=Cc1ccc2nc(NCCN)c3ncc(C)n3c2c1 tgt="EPHB4 (human)" experimental_result=100
compound=N#Cc1c(NC(=O)c2cccc3ccccc23)sc2c1CCCC2 tgt="EPHB4 (human)" experimental_result=100

// for each compound in input: emit kinase still bound, per cent of control
1. CN(C)C/C=C/C(=O)Nc1cccc(Nc2ncc3c(n2)N(C)c2ccccc2C(=O)N3C)c1
2. Cc1ccc(C(=O)Nc2cccc(C(F)(F)F)c2)cc1Nc1cncc(C(N)=O)c1
3. C[C@@H](Oc1cc(-n2cnc3ccc(CN4CCN(C)CC4)cc32)sc1C(N)=O)c1ccccc1C(F)(F)F
4. C=CC(=O)Nc1cccc(Oc2nc(Nc3ccc(N4CCN(C)CC4)cc3OC)ncc2Cl)c1
5. Cc1cc([C@@H](C)Nc2ccccc2C(=O)O)c2nc(N3CCOCC3)cc(=O)n2c1
6. OCCCNc1cc(-c2ccnc(Nc3cccc(Cl)c3)n2)ccn1
7. O=C(O)c1ccc(Nc2ncc3c(n2)-c2ccc(Cl)cc2C(c2c(F)cccc2F)=NC3)cc1

Ans:
1: 83; 2: 6.9; 3: 100; 4: 100; 5: 96; 6: 100; 7: 11

Provide each entry's kinase still bound, per cent of control from the list below.
1. COc1cc(C(=O)NC2CCN(C)CC2)ccc1Nc1ncc2c(n1)N(C1CCCC1)C(C)CC(=O)N2C (configuration not stated)
2. CC[C@@H]1C(=O)N(C)c2cnc(Nc3ccc(C(=O)NC4CCN(C)CC4)cc3OC)nc2N1C1CCCC1
3. Cc1ccc(NC(=O)c2cccc(C(C)(C)C#N)c2)cc1Nc1ccc2ncn(C)c(=O)c2c1

Ans:
1. 100
2. 100
3. 0.25
